Test system: Setaria faberi (SETFA)
assay-protocol: Pre-emergence herbicidal glasshouse test on Setaria faberi
Format: in vivo
measurement-parameters: pre-emergence, 1000 g/h, evaluated after 13 days, five point scale
Procedure: Seeds of a variety of test species are sown in standard soil in pots (Alopecurus myosuroides (ALOMY), Setaria faberi (SETFA), Echinochloa crus-galli (ECHCG), Solanum nigrum (SOLNI), Amaranthus retoflexus (AMARE), Ipomoea hederacea (IPOHE)). […] After 13 days for pre and post-emergence, the test is evaluated for the percentage herbicidal damage caused to the plant. […]
Measured herbicidal damage, PRE Application SETFA, listed per entry for reference.

smiles_record=Cc1nc2nc(C(F)(F)F)c(-c3cnn(C)c(=O)c3O)cc2cc1F reported="2 (2=20-39% damage)"

Reported herbicidal damage, PRE Application SETFA of Cn1ncc(-c2cccn(-c3cccc(C(F)(F)F)c3)c2=O)c(O)c1=O : 5 (5=80-100% damage)

Reported herbicidal damage, PRE Application SETFA of COc1ccc(-c2cnn(C)c(=O)c2O)c(OC)n1 : 1 (1=0-19% damage)

Reported herbicidal damage, PRE Application SETFA of COc1nccc(-c2cnn(C)c(=O)c2O)c1Cl : 1 (1=0-19% damage)

Reported herbicidal damage, PRE Application SETFA of Cn1ncc(-c2cc3cc(N4CCOCC4)cnc3nc2C(F)(F)F)c(O)c1=O : 2 (2=20-39% damage)

Reported herbicidal damage, PRE Application SETFA of Cn1ncc(-c2cc(Br)c(Br)cc2S(C)(=O)=O)c(O)c1=O : 1 (1=0-19% damage)

Reported herbicidal damage, PRE Application SETFA of Cn1ncc(-c2c(S(C)(=O)=O)ccc(Br)c2Br)c(O)c1=O : 1 (1=0-19% damage)

====

Test system: Amaranthus retoflexus (AMARE)
assay-protocol: Pre-emergence herbicidal glasshouse test on Amaranthus retoflexus
Assay type: in vivo
measurement-parameters: pre-emergence; 1000 g/h; evaluated after 13 days
Measured PRE Application AMARE herbicidal damage (five point scale), listed per entry for reference.

compound="Cn1ncc(-n2cccc(-c3ccc(C(F)(F)F)cc3)c2=O)c(O)c1=O [Compound 7.001]" tested_target="Amaranthus retoflexus (AMARE)" reported="1 (1=0-19% damage)"

// below: PRE Application AMARE herbicidal damage (five point scale) requested for another compound
The value of PRE Application AMARE herbicidal damage (five point scale) recorded for CCCn1ncc(-c2c(Cl)cccc2Cl)c(O)c1=O [Compound 1.129] when tested on Amaranthus retoflexus (AMARE) reads 1 (1=0-19% damage)

====

Measured PRE Application AMARE herbicidal damage (five point scale), listed per entry for reference.
Tested on: Amaranthus retoflexus (AMARE)
assay-protocol: Pre-emergence herbicidal glasshouse test on Amaranthus retoflexus
Type: in vivo
measurement-parameters: pre-emergence; 1000 g/h; evaluated after 13 days
Method: Seeds of a variety of test species are sown in standard soil in pots (Alopecurus myosuroides (ALOMY), Setaria faberi (SETFA), Echinochloa crus-galli (ECHCG), Solanum nigrum (SOLNI), Amaranthus retoflexus (AMARE), Ipomoea hederacea (IPOHE)). […] After 13 days for pre and post-emergence, the test is evaluated for the percentage herbicidal damage caused to the plant. […]

smiles_record=CSc1ccc(-c2c(C(F)(F)F)ccn(-c3cnn(C)c(=O)c3O)c2=O)cc1 tested_target="Amaranthus retoflexus (AMARE)" reported="5 (5=80-100% damage)"
smiles_record=Cn1ncc(-c2ccc(S(C)(=O)=O)c(OCC(F)(F)F)c2Cl)c(O)c1=O tested_target="Amaranthus retoflexus (AMARE)" reported="2 (2=20-39% damage)"
smiles_record=Cc1c(-c2cnn(C)c(=O)c2O)ccc2c1C(=O)N(C)S2(=O)=O tested_target="Amaranthus retoflexus (AMARE)" reported="5 (5=80-100% damage)"
smiles_record=Cn1ncc(-c2ccc(Cl)c(Cl)c2Cl)c(O)c1=O tested_target="Amaranthus retoflexus (AMARE)" reported="1 (1=0-19% damage)"
smiles_record=Cc1c(-c2cnn(C3CCCC3)c(=O)c2O)ccc(S(C)(=O)=O)c1C1=NOCC1 tested_target="Amaranthus retoflexus (AMARE)" reported="3 (3=40-59% damage)"

Reported PRE Application AMARE herbicidal damage (five point scale) of Cc1c(Cl)ccc(-c2cnn(C)c(=O)c2O)c1F : 1 (1=0-19% damage)

Reported PRE Application AMARE herbicidal damage (five point scale) of Cc1ccc(Cl)c(-c2cnn(C)c(=O)c2O)c1 : 1 (1=0-19% damage)

Reported PRE Application AMARE herbicidal damage (five point scale) of CCSC(=O)Oc1c(-c2ccc(C(F)(F)F)cc2S(C)(=O)=O)cnn(C)c1=O : 5 (5=80-100% damage)

Reported PRE Application AMARE herbicidal damage (five point scale) of CC(=O)Oc1c(-c2ccc(C(F)(F)F)cc2S(C)(=O)=O)cnn(C)c1=O : 5 (5=80-100% damage)

The reported numbers originate from patent US9693556B2.
